# Method: Colistin plasma concentrations at steady state (HPLC)
# Type: in vivo, patients
# Reported conditions: human, intravenous, 1 million IU/8 h, CMS 1 million IU/8 h (n = 28), steady state, 30 min after infusion, median (interquartile range), read-out: Cmax
Bridge positions count the residues as written; N and C are the ends. Square brackets hold non-standard residues; d marks the D form. Peptide text beside a SMILES is read from it. * marks the point of attachment. X1 = CC[C@H](C)CCCCC(=O)*; Dab = NCC[C@H](N)C(=O)O
Quantity kind: Cmax (ng/mL)
// units = ng/mL; emit number, no label

CC[C@H](C)CCCCC(=O)N[C@@H](CCN)C(=O)N[C@H](C(=O)N[C@@H](CCN)C(=O)N[C@H]1CCNC(=O)[C@H]([C@@H](C)O)NC(=O)[C@H](CCN)NC(=O)[C@H](CCN)NC(=O)[C@H](CC(C)C)NC(=O)[C@@H](CC(C)C)NC(=O)[C@H](CCN)NC1=O)[C@@H](C)O [colistin] (X1-[Dab]T[Dab][Dab][Dab][dL]L[Dab][Dab]T; lactam 4-C) yielded Cmax of 650
